// data source = ChEMBL document CHEMBL1135740

- Method Notes: Plasma concentration after oral aministration at 1 hr. (10 mg/kg)
- Assay type: ADME, organism-based
- Condition Description: rat
Measurement Name: concentration at 1 h (nM)
Give bare numbers, in nM.

Enquiry: Request the reported concentration at 1 h associated with `CN1CCN=C1c1cccc(Oc2cc(C(=O)O)cc(Oc3cc(C(=N)N)ccc3O)n2)c1`
Return: 1400

====

- Method Notes: Plasma concentration after intravenous aministration at 30 min. (1 mg/kg, n=3)
- Assay type: ADME, organism-based
- Condition Description: rat
Please respond with yes when measured concentration at 0.5 h is strictly beneath 800 nM, and with no in all other cases.

Enquiry: Determine whether this compound shows concentration at 0.5 h lower than 800 nM (ties excluded): `Cc1c(F)c(Oc2cccc(C(=N)N)c2)nc(Oc2cccc(C(=N)N)c2)c1F`
Return: yes

====

- Method Notes: Plasma concentration after oral aministration at 2 hr. (10 mg/kg)
- Format: ADME, organism-based
- Condition Description: rat
Measurement Name: concentration at 2 h (nM)
Give bare numbers, in nM.

Enquiry: What value of concentration at 2 h has been recorded for this entry: `CN1CCN=C1c1cccc(Oc2cc(C(=O)O)cc(Oc3cc(C(=N)N)ccc3O)n2)c1`
Return: 200

====

Measurement record for Prothrombin (Homo sapiens, UniProt P00734); quantity recorded: Ki.
Give bare numbers, in nM.

Recorded results for 2 compounds are shown here.
{"Line Notation": "CN(C)C(=O)c1cccc(Oc2cc(C(=O)O)cc(Oc3cc(C(=N)N)ccc3O)n2)c1", "Measurement Name": "Ki", "Assay Result": 490}
{"Line Notation": "Cc1c(Oc2nc(Oc3cccc(C(=N)N)c3)c(F)c(C)c2F)cccc1N(C)C", "Measurement Name": "Ki", "Assay Result": 950}

From here, focus on the item given below.
Enquiry: Dear colleague, I am looking for the recorded Ki of the following compound: `Cc1c(F)c(Oc2cccc(C(=O)N(C)C)c2)nc(Oc2cc(C(=N)N)cc(O)c2O)c1F`
Return: 1200

====

- Method Notes: Plasma concentration after intravenous aministration at 60 min. (1 mg/kg, n=3)
- Assay type: ADME, organism-based
- Condition Description: rat
Measurement Name: concentration at 1 h (nM)
Give bare numbers, in nM.

Enquiry: # lookup: concentration at 1 h of `CN1CCN=C1c1cccc(Oc2cc(C(=O)O)cc(Oc3cc(C(=N)N)ccc3O)n2)c1`
Return: 400

====

For each entry below, report its concentration at 0.5 h value.
- Method Notes: Plasma concentration after intravenous aministration at 30 min. (1 mg/kg, n=3)
- Type: ADME, organism-based
- Condition Description: rat
One number for each entry, in nM.

Check out these entries, answers already filled in.
{"Line Notation": "N=C(N)c1ccc(O)c(Oc2cc(C(=O)O)cc(Oc3cccc(C4=NCCN4)c3)n2)c1", "Unit Descriptor": "nM", "concentration at 0.5 h": 3000}
{"Line Notation": "N=C(N)c1cccc(Oc2cc(C(=O)O)cc(Oc3cc(C(=N)N)ccc3O)n2)c1", "Unit Descriptor": "nM", "concentration at 0.5 h": 1900}
{"Line Notation": "N=C(N)c1cccc(Oc2cc(C(=O)O)cc(Oc3cccc(C(=N)N)c3)n2)c1", "Unit Descriptor": "nM", "concentration at 0.5 h": 800}

Moving on to another compound below.
Enquiry: Given the compound `CN1CCN=C1c1cccc(Oc2cc(C(=O)O)cc(Oc3cc(C(=N)N)ccc3O)n2)c1` , what is its reported concentration at 0.5 h?
Return: 1100

====

pKi: −log10 of the molar value.
What follows is a record of pKi for Prothrombin (Homo sapiens).

Take a look at these entries with their results.
{"Line Notation": "Cc1c(F)c(Oc2cccc(N)c2)nc(Oc2cccc(C(=N)N)c2)c1F", "pKi": "< 5.30"}
{"Line Notation": "Cc1c(F)c(Oc2cccc(CC(=O)O)c2)nc(Oc2cccc(C(=N)N)c2)c1F", "pKi": "< 5.30"}

Turning now to a further compound:
Enquiry: Need pKi of `Cc1c(F)c(Oc2cccc(C(=N)N)c2)nc(Oc2cc(C(=O)N(C)C)ccc2O)c1F` , thanks.
Return: < 5.30
